// note: pKi values for C-C chemokine receptor type 3 (Homo sapiens, UniProt P51677) were reported in different studies
pKi: −log10 of the molar value.

Test smiles: Cc1ccc(C)c(Oc2ccc([N+](=O)[O-])cc2S(=O)(=O)N2CCN(C(=O)c3ccco3)CC2)c1
pKi: < 5.30

# input Lab note: record pKi of N=c1c2ccccc2nc2n1CC/C2=C\c1ccccc1Cl tested on C-C chemokine receptor type 3 (Homo sapiens, UniProt P51677).
# output 7.00 to 9.00

# input Lab note: record pKi of COc1ccc(C(=O)N2CCN(S(=O)(=O)c3cc([N+](=O)[O-])ccc3Oc3cc(Cl)ccc3Cl)CC2)cc1 tested on C-C chemokine receptor type 3 (Homo sapiens, UniProt P51677).
# output < 5.30

# input Lab note: record pKi of Cc1cc(C)cc(Sc2ccc(C#N)cc2S(=O)(=O)N2CCN(C(=O)c3ccccc3)CC2)c1 tested on C-C chemokine receptor type 3 (Homo sapiens, UniProt P51677).
# output 6.30 to 7.30

# input Lab note: record pKi of N#Cc1ccc(Oc2cc(Cl)cc(Cl)c2)c(S(=O)(=O)N2CCC(NC(=O)NCCN3CCC(F)CC3)CC2)c1 tested on C-C chemokine receptor type 3 (Homo sapiens, UniProt P51677).
# output ≥ 7.30

# input Lab note: record pKi of Cc1cc(CN2CCC(N3C(=O)CC[C@@H]3C(=O)Nc3nc(C(C)C)c(C(=O)N(C)C)s3)CC2)ccc1Cl tested on C-C chemokine receptor type 3 (Homo sapiens, UniProt P51677).
# output 8.40

# input Lab note: record pKi of COc1ccc(C(=O)N2CCN(S(=O)(=O)c3cc([N+](=O)[O-])ccc3Oc3cc(C)ccc3C)CC2)cc1 tested on C-C chemokine receptor type 3 (Homo sapiens, UniProt P51677).
# output < 5.30

###

// note: Ki values for C-C chemokine receptor type 3 (Homo sapiens) were reported in different studies

In the examples that follow, each entry is paired with its recorded Ki.
Test smiles: COc1cc(NC(=O)[C@H]2CCC(=O)N2C2CCN(Cc3ccc(Cl)c(C)c3)CC2)ccc1N1CCCCC1=O
Ki: 152 nM

Test smiles: CC1CCN(S(=O)(=O)c2cc(C#N)ccc2Sc2cc(Cl)cc(Cl)c2)CC1
Ki: > 5000 nM

Test smiles: Cc1cc(C)cc(Sc2ccc(C#N)cc2S(=O)(=O)N2CCS(=O)(=O)CC2)c1
Ki: ≤ 50 nM

Turning now to a further record.
# input Lab note: record Ki of Cc1cc(C)cc(Oc2ccc(C#N)cc2S(=O)(=O)N2CCN(C(=O)C3CCCCC3)CC2)c1 tested on C-C chemokine receptor type 3 (Homo sapiens).
# output > 5000 nM

###

// note: Ki values for C-C chemokine receptor type 3 (Homo sapiens, UniProt P51677) were reported in different studies

In the examples that follow, each entry is paired with its recorded Ki.
Test smiles: COc1ccc(C(=O)N2CCN(S(=O)(=O)c3cc([N+](=O)[O-])ccc3Sc3cc(C)ccc3C)CC2)cc1
Ki: > 5000 nM
//
Test smiles: N#Cc1ccc(Oc2cc(Cl)cc(Cl)c2)c(S(=O)(=O)N2CCN(C(=O)NCc3ccccc3)CC2)c1
Ki: 50 to 500 nM
//
Test smiles: CCc1ccccc1C=C1CCN2Cc3ccccc3N=C12
Ki: 1000 to 10000 nM

# input Lab note: record Ki of CCc1cc(C(=O)N(C)C)cc(NC(=O)[C@H]2CCC(=O)N2C2CCN(Cc3ccc(Cl)c(C)c3)CC2)n1 tested on C-C chemokine receptor type 3 (Homo sapiens, UniProt P51677).
# output 8 nM

# input Lab note: record Ki of Cc1cc(C)cc(Oc2ccc(C#N)cc2S(=O)(=O)N2CCN(C(=O)NC(C)C)CC2)c1 tested on C-C chemokine receptor type 3 (Homo sapiens, UniProt P51677).
# output 50 to 500 nM

###

// note: log10(Ki) values for UniProt P51677 were reported in different studies
In our notation, the value equals log10 of Ki in nM.

In the examples that follow, each entry is paired with its recorded log10(Ki).
Test smiles: Fc1ccc(SCCCN2CCC(n3c(CC(F)(F)F)nc4cc(F)ccc43)CC2)cc1
Measured property: log10(Ki)
Val: 1.28
//
Test smiles: Cc1cc(CN2CCC(N3C(=O)CC[C@@H]3C(=O)Nc3cccc(C(=O)N(C)C4CC4)c3)CC2)ccc1Cl
Measured property: log10(Ki)
Val: 0.85
//
Test smiles: Cc1cc(CN2CCC(N3C(=O)CC[C@@H]3C(=O)Nc3cccc(C(=O)NCC4CC4)c3)CC2)ccc1Cl
Measured property: log10(Ki)
Val: 0.60
//
Test smiles: CCN(C)C(=O)c1cc(C)nc(NC(=O)[C@H]2CCC(=O)N2C2CCN(Cc3ccc(Cl)c(C)c3)CC2)c1
Measured property: log10(Ki)
Val: 0.23
//
Test smiles: CCOC(=O)c1cc(NC(=O)[C@H]2CCC(=O)N2C2CCN(Cc3ccc(Cl)c(C)c3)CC2)nn1C
Measured property: log10(Ki)
Val: 1.60

# input Lab note: record log10(Ki) of Cc1cc(CN2CCC(N3C(=O)CC[C@@H]3C(=O)Nc3cc(C(=O)N(C)CCO)cc(C(C)(C)C)c3)CC2)ccc1Cl tested on UniProt P51677.
# output 0.78

# input Lab note: record log10(Ki) of CNC(=O)c1cc(F)cc(NC(=O)[C@H]2CCC(=O)N2C2CCN(Cc3ccc(Cl)c(C)c3)CC2)c1 tested on UniProt P51677.
# output 1.38

###

// note: Ki values for C-C chemokine receptor type 3 (Homo sapiens) were reported in different studies

In the examples that follow, each entry is paired with its recorded Ki.
Test smiles: Cc1cc(C)cc(Oc2ccc(C#N)cc2S(=O)(=O)N2CCN(C(=O)Nc3cccc(F)c3)CC2)c1
Val: > 5000 nM
//
Test smiles: COc1ccc(C(=O)N2CCN(S(=O)(=O)c3cc(C#N)ccc3Oc3cc(C)cc(C)c3)CC2)cc1
Val: > 5000 nM
//
Test smiles: [2H]c1c([2H])c(Oc2cc(Cl)cc(Cl)c2)c(S(=O)(=O)N2CCC(NC(=O)NCC=C)CC2)c([2H])c1C#N
Val: ≤ 50 nM

Turning now to a further record.
# input Lab note: record Ki of CCn1nccc1CNC(=O)[C@H]1CCC(=O)N1C1CCN(Cc2ccc(Cl)c(C)c2)CC1 tested on C-C chemokine receptor type 3 (Homo sapiens).
# output 395 nM

###

// note: pKi values for C-C chemokine receptor type 3 (Homo sapiens, UniProt P51677) were reported in different studies
pKi: −log10 of the molar value.
// label = label 1 if pKi is not less than 8, otherwise label 0

Test smiles: Cc1cc(CN2CCC(N3C(=O)CC[C@H]3C(=O)N3CCc4cccc(C(F)(F)F)c4C3)CC2)ccc1Cl
Test system: C-C chemokine receptor type 3 (Homo sapiens, UniProt P51677)
Answer label: label 0
//
Test smiles: Cc1cc(C)cc(Oc2ccc(C#N)cc2S(=O)(=O)N2CCN(C(=O)Nc3ccc([N+](=O)[O-])cc3)CC2)c1
Test system: C-C chemokine receptor type 3 (Homo sapiens, UniProt P51677)
Answer label: label 0
//
Test smiles: Cc1cc(CN2CCC(N3C(=O)CC[C@@H]3C(=O)Nc3cc(Cl)cc(C(=O)N(C)C)c3)CC2)ccc1Cl
Test system: C-C chemokine receptor type 3 (Homo sapiens, UniProt P51677)
Answer label: label 1
//
Test smiles: CCNS(=O)(=O)c1cccc(NC(=O)[C@@H]2CCC(=O)N2C2CCN(Cc3ccc(Cl)c(C)c3)CC2)c1
Test system: C-C chemokine receptor type 3 (Homo sapiens, UniProt P51677)
Answer label: label 0
//
Test smiles: COc1ccc(NC(=O)[C@H]2CCC(=O)N2C2CCN(Cc3ccc(Cl)c(C)c3)CC2)cc1C(=O)N(C)CCO
Test system: C-C chemokine receptor type 3 (Homo sapiens, UniProt P51677)
Answer label: label 0

# input Is it the case that Cc1cc(C)cc(Oc2ccc(C#N)cc2S(=O)(=O)N2CCN(C(=O)CC(C)C)CC2)c1 has pKi reaching or exceeding 8?
# output label 0

# input Is it the case that Cc1cc(C)cc(Oc2ccc(C#N)cc2S(=O)(=O)NC2CCN(S(C)(=O)=O)CC2)c1 has pKi reaching or exceeding 8?
# output label 0

# input Is it the case that N#Cc1ccc(Oc2cc(Cl)cc(Cl)c2)c(S(=O)(=O)N2CCN(C(=O)C3CCC3)CC2)c1 has pKi reaching or exceeding 8?
# output label 0

# input Is it the case that Cc1cc(C)cc(Oc2ccc(C#N)cc2S(=O)(=O)N2CCN(C(=O)C3CCC3)CC2)c1 has pKi reaching or exceeding 8?
# output label 0

# input Is it the case that Cc1cc(CN2CCC(N3C(=O)N(C)C[C@@H]3C(=O)Nc3cc(C4CC4)nn3C)CC2)ccc1Cl has pKi reaching or exceeding 8?
# output label 0

# input Is it the case that CNC(=O)c1cccc(NC(=O)[C@H]2CCC(=O)N2C2CCN(Cc3ccc(Cl)c(F)c3)CC2)c1 has pKi reaching or exceeding 8?
# output label 0

# input Is it the case that Cc1cc(CN2CCC(N3C(=O)CC[C@@H]3C(=O)Nc3cc(C(=O)N(C)C)cc(C(C)C)n3)CC2)ccc1Cl has pKi reaching or exceeding 8?
# output label 1

# input Is it the case that Cc1cc(C(=O)N(C)C(C)C)cc(NC(=O)[C@H]2CCC(=O)N2C2CCN(Cc3ccc(Cl)c(C)c3)CC2)n1 has pKi reaching or exceeding 8?
# output label 1
